meta.source: patent US9096565B2

In this section we review reported IC50 values for a set of compounds.
target: one or more of HDAC-4, HDAC-5, HDAC-6, HDAC-7, HDAC-8, HDAC-9, HDAC-10 and HDAC-11; test: Inhibition of histone deacetylase enzymatic activity (summary statement over isoforms); conditions: Table 3, selected examples; HDAC isoform not given

CCN(CCN(C)C)c1ccc(C(C(=O)NO)c2ccccc2)cc1 (stereo not shown) : < 1 µM
O=C(NO)C1c2ccccc2N(Cc2ccccc2)c2ccccc21 : < 1 µM
O=C(NO)C(c1ccc(N2CCCC2)cc1)c1ccc2c(c1)CCO2 (stereo not shown) : < 1 µM
O=C(NO)C(c1ccccc1)N1CCC(c2cn(Cc3ccccc3)c3ccccc23)CC1 (stereo not shown) : < 1 µM

Query block: Which IC50 value is on record for CCCCOc1ccc(C(C(=O)NO)c2ccccc2)cc1 (stereo not shown) ?
Result block: 1 to 15 µM

Query block: Try CC(=O)N1CCN(c2cccc(C(C(=O)NO)c3ccccc3)c2)CC1 (stereo not shown) next.
Result block: < 1 µM

Query block: And for CC(C)Nc1cccc(C(C(=O)NO)c2ccccc2)c1 (stereo not shown) ?
Result block: 1 to 15 µM

Query block: Okay, and O=C(NO)C(c1ccccc1)c1cccc(-c2ccc3c(c2)CCO3)c1 (stereo not shown) ?
Result block: < 1 µM

Query block: Same lookup for COc1cccc(NC(=O)N2CCCN(C(C(=O)NO)c3ccccc3)CC2)c1 (stereo not shown) , please.
Result block: 1 to 15 µM

Query block: Repeat for the following compound: CN(C)CCOc1cccc(C(C(=O)NO)c2ccccc2)c1 (stereo not shown)
Result block: 1 to 15 µM

Query block: One more compound: O=C(NO)C(O)(c1ccccc1)c1ccccc1 [Compound 1-28, N,2-dihydroxy-2,2-diphenylacetamide]
Result block: < 1 µM

Query block: Try O=C(NO)C(c1ccccc1)c1nnc(-c2ccc3c(c2)OCO3)s1 (stereo not shown) next.
Result block: < 1 µM
